- PROCEDURE_TEXT: Pharmacokinetics of S9229 in rats, single iv or oral dose
- Format: in vivo, Sprague-Dawley rats
- STUDY_CONDITIONS: male, Sprague-Dawley, rat, plasma, iv, 1 mg/kg
MEASURED_ATTRIBUTE: AUC(0-t) (ng·h/mL)
Answer with a number only, understood to be in ng·h/mL.

Field request: AUC(0-t) | item: COC[C@@H](CC(C)C)NC(=O)c1ccc(C)c(C)c1
1690

----------
- PROCEDURE_TEXT: Pharmacokinetics of S807 in rats, single iv or oral dose
- Type: in vivo, Sprague-Dawley rats
- STUDY_CONDITIONS: female, Sprague-Dawley, rat, plasma, po, 20 mg/kg
MEASURED_ATTRIBUTE: bioavailability (%)
Please respond with the number in % and leave the unit unwritten.

Form field: reported bioavailability of CCCC(CCC)NC(=O)c1ccc2c(c1)OCO2 [S807]
2.43
